B1: TPR 5TU (parent)
chain: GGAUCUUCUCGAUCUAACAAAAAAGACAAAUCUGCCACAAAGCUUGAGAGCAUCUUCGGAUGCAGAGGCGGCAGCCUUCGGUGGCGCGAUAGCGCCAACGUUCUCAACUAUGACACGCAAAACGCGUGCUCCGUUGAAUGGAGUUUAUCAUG

# Variants of: B1
# method-notes: polymerase ribozyme fitness, log enrichment relative to wild type (log ratio); higher = more active; in vitro selection for triplet polymerase activity
Variants at the floor of the assay were thinned out.
Recorded polymerase ribozyme fitness (log ratio) for the following variants
Note: the reply should be a number with no unit written.

In [3]: df
Out[3]:
            sequence_variant  meas_value
0  C14U G58C C85U A89G G136A       -3.44

Request: Item under review: G25C C36U C57A . Reported polymerase ribozyme fitness (log ratio)?
Result: -3.99

Request: Item under review: C93A C116U . Reported polymerase ribozyme fitness (log ratio)?
Result: -1.88

Request: Item under review: A41U C76A . Reported polymerase ribozyme fitness (log ratio)?
Result: -1.99

Where do the numbers come from? From the RNAGym collection of RNA variant scans (doi:10.1073/pnas.2313332121).
